# Experimental system: human 5-HT1A receptor subtype (Homo sapiens)
# Sequence (P08908 1-422): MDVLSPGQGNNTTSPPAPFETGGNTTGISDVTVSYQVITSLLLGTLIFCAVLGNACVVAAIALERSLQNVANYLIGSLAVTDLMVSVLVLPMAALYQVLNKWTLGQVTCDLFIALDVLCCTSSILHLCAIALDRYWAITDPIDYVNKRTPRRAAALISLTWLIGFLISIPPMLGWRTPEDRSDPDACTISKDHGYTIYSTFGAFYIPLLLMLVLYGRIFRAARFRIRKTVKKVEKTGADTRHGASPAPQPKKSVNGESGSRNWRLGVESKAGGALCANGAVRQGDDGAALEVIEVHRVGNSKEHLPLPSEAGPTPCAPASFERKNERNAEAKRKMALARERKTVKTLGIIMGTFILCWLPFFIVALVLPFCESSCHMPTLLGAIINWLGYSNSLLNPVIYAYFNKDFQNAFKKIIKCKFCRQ
Reported property: pKi
Just the number, please; pKi means minus log10 of the concentration in mol/L.

| Molecule | Experimental system | Reported property | Recorded measurement |
| --- | --- | --- | --- |
| c1cc(N2CCN([C@H]3CC[C@H](c4c[nH]c5ccccc54)CC3)CC2)c2cc[nH]c2c1 [Example 1b] | human 5-HT1A receptor subtype (Homo sapiens) | pKi | 8.28 |
| Fc1cc2c(c(N3CCN([C@H]4CC[C@@H](c5c[nH]c6ccc(F)cc65)CC4)CC3)c1)OCCC2 [Example 31a] | human 5-HT1A receptor subtype (Homo sapiens) | pKi | 6.85 |

Could you tell me which pKi is on file for COc1ccc(F)cc1N1CCN([C@H]2CC[C@H](c3c[nH]c4ccc(F)cc43)CC2)CC1 [Example 22b] ? 7.94

====

# Experimental system: serotonin transporter (Rattus norvegicus, UniProt P31652)
# Construct: from tissue; host or cells: frontal cortex of male Sprague-Dawley rats
# Sequence (P31652 whole entry): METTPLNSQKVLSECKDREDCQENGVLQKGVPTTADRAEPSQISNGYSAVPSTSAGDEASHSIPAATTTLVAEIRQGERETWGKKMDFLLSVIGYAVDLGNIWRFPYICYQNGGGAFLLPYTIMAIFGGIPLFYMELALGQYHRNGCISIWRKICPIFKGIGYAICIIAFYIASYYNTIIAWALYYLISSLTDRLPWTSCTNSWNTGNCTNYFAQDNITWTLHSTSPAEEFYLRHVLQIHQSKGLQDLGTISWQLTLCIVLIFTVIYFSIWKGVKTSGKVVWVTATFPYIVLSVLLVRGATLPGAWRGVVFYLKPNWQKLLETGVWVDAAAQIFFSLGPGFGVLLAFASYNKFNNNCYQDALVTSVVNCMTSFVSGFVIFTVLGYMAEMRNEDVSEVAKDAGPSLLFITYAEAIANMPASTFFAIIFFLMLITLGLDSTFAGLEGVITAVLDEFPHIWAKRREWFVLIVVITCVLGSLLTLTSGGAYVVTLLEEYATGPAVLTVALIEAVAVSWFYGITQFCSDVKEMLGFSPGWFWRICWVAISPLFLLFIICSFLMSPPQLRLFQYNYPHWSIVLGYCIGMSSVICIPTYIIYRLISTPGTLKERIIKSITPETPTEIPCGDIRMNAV
# Assay remarks: Serotonin transporter affinity, 3H-paroxetine binding to frontal cortical membranes
# Design: species or system male Sprague-Dawley rats
# Condition context: 3H-paroxetine 0.1 nM, rat frontal cortical membranes; read-out: ST (Kj, nM,)
This section presents compounds with their documented log10(Ki) values.
Could you please treat all values as log10 of Ki in nM?

Guide cases for log10(Ki), answers given:
| Compound | Recorded measurement |
| --- | --- |
| COc1ccc(F)cc1N1CCN([C@H]2CC[C@H](c3c[nH]c4ccc(F)cc43)CC2)CC1 [Example 22b] | 1.56 |
| Clc1ccc2[nH]cc([C@H]3CC[C@@H](N4CCN(c5cccc6[nH]ccc56)CC4)CC3)c2c1 [Example 6a] | 1.45 |
| COc1ccccc1N1CCN([C@H]2CC[C@@H](c3c[nH]c4ccc(F)cc43)CC2)CC1 [Example 18] | 0.13 |
| N#Cc1ccc2[nH]cc(C3=CCC(N4CCN(c5cccc6[nH]ccc56)CC4)CC3)c2c1 (stereo not shown) [Example 36] | 1.45 |
| COc1ccccc1N1CCN(C2CC=C(c3c[nH]c4ccc(F)cc34)CC2)CC1 (stereo not shown) [Example 35] | 1.96 |
| COc1ccc(F)cc1N1CCN([C@H]2CC[C@@H](c3c[nH]c4ccc(F)cc43)CC2)CC1 [Example 22a] | 0.70 |

Could you tell me which log10(Ki) is on file for Cn1ccc2c(N3CCN([C@H]4CC[C@@H](c5cn(C)c6cc(F)ccc65)CC4)CC3)cccc21 [Example 11] ? 1.60

====

# Experimental system: 5-HT1A cloned receptor membrane fragments (Homo sapiens)
# Construct: expressed in transfected cells
# Sequence (P08908 1-422): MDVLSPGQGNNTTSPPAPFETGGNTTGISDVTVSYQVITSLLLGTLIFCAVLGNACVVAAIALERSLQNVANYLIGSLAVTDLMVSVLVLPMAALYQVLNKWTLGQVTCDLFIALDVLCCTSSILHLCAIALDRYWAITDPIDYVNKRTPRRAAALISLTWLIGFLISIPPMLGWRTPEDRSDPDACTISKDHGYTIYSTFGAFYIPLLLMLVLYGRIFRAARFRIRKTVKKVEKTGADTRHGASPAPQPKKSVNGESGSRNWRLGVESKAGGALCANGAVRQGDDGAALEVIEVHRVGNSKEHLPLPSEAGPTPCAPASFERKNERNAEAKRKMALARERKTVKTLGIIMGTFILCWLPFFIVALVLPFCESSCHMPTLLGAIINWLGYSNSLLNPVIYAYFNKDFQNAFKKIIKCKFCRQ
# Assay remarks: [35S]-GTPγS binding assay
# Type: biochemical
# Condition context: value in brackets, or a lone % in the cell; maximum agonist response defined by excess 8-OH-DPAT; read-out: GTPγS (%EMax)
This section presents compounds with their documented Emax values.
Supply the numeric figure in %, leaving out any unit text.

| Compound | Emax, % |
| --- | --- |
| N#Cc1ccc2[nH]cc(C3=CCC(N4CCN(c5cccc6[nH]ccc56)CC4)CC3)c2c1 (stereo not shown) | 53 |

Provide value of Emax for this record tested with 5-HT1A cloned receptor membrane fragments (Homo sapiens): COc1cc(N2CCN([C@H]3CC[C@@H](c4c[nH]c5ccc(C#N)cc54)CC3)CC2)c2ncccc2c1 [Example 44c] 0

Record: COc1ccc2[nH]cc([C@H]3CC[C@H](N4CCN(c5cccc6[nH]ccc56)CC4)CC3)c2c1 32

Record: COc1ccc(F)cc1N1CCN([C@H]2CC[C@@H](c3c[nH]c4ccc(F)cc43)CC2)CC1 [Example 22a] 0

Record: c1cc(N2CCN([C@H]3CC[C@@H](c4c[nH]c5ccccc54)CC3)CC2)c2cc[nH]c2c1 0

Record: c1cc(N2CCN([C@H]3CC[C@H](c4c[nH]c5ccccc54)CC3)CC2)c2cc[nH]c2c1 32

Record: Fc1ccc2c(c1)[nH]cc2[C@H]1CC[C@@H](N2CCN(c3cccc4[nH]ccc34)CC2)CC1 0

Record: COc1ccc2[nH]cc([C@H]3CC[C@@H](N4CCN(c5cccc6[nH]ccc56)CC4)CC3)c2c1 0

Record: COc1ccc(F)cc1N1CCN([C@H]2CC[C@H](c3c[nH]c4ccc(F)cc43)CC2)CC1 [Example 22b] 4.5

Record: Clc1ccc2[nH]cc([C@H]3CC[C@@H](N4CCN(c5cccc6[nH]ccc56)CC4)CC3)c2c1 53

====

# Experimental system: 5-HT1A cloned receptor membrane fragments (Homo sapiens)
# Construct: expressed in transfected cells
# Assay remarks: [35S]-GTPγS binding assay
# Format: biochemical
# Condition context: read-out: GTPγS (%EMax)
This section presents compounds with their documented Emax values.
Lab note: write values as number then unit, every time.

| Compound | Recorded measurement |
| --- | --- |
| Fc1ccc2c(c1)[nH]cc2[C@H]1CC[C@@H](N2CCN(c3cccc4c3OCCO4)CC2)CC1 [Example 25a] | 9% |
| Cn1cc([C@H]2CC[C@@H](N3CCN(c4cccc5cccnc45)CC3)CC2)c2cc(F)ccc21 | 0% |
| Fc1ccc2[nH]cc([C@H]3CC[C@H](N4CCN(c5cccc6c5OCCO6)CC4)CC3)c2c1 [Example 24b] | 73% |

Provide value of Emax for this record tested with 5-HT1A cloned receptor membrane fragments (Homo sapiens): Fc1ccc2[nH]cc([C@H]3CC[C@@H](N4CCN(c5cccc6cccnc56)CC4)CC3)c2c1 [Example 27a] 20%

Record: Fc1ccc2[nH]cc([C@H]3CC[C@@H](N4CCN(c5cccc6c5OCCO6)CC4)CC3)c2c1 [Example 24a] 15.4%

Record: Fc1ccc2[nH]cc([C@H]3CC[C@H](N4CCN(c5cccc6cccnc56)CC4)CC3)c2c1 [Example 27b] 66%

====

# Experimental system: human 5-HT1A receptor subtype (5-HT1A.CHO cells) (Homo sapiens)
# Construct: expressed in transfected cells
# Sequence (P08908 1-422): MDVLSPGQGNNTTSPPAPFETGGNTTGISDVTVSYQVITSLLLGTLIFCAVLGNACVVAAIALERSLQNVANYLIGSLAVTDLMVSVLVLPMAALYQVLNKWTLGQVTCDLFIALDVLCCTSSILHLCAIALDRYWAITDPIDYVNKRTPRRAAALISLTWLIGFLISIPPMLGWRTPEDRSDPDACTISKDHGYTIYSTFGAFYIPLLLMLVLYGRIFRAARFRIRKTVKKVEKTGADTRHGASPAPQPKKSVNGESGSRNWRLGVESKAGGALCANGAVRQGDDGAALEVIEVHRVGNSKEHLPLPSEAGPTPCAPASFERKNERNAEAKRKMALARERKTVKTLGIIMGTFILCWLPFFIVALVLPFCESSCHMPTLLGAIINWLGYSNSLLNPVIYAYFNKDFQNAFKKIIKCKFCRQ
# Assay remarks: cAMP formation in forskolin-treated cells (cAMP SPA assay)
# Assay type: cell-based
# Condition context: value in brackets; forskolin 1 uM
# From the text: The PCR cloning of the human 5-HT1A receptor subtype from a human genomic library has been described previously Chanda et al., Mol. Pharmacol., 43:516 (1993). A stable Chinese hamster ovary cell line expressing the human 5-HT1A receptor subtype (5-HT1A.CHO cells) was employed throughout this study. Cells were maintained in DMEM supplemented with 10% foetal calf serum, non-essential amino acids and penicillin/ streptomycin. […]
Reported property: Emax

Guide cases for Emax, answers given:
| Compound | Emax |
| --- | --- |
| Fc1ccc2c(c1)[nH]cc2[C@H]1CC[C@H](N2CCN(c3cccc4[nH]ccc34)CC2)CC1 | 7.5% |
| Fc1ccc2[nH]cc([C@H]3CC[C@H](N4CCN(c5cccc6[nH]ccc56)CC4)CC3)c2c1 | 0% |
| Fc1ccc2[nH]cc([C@H]3CC[C@@H](N4CCN(c5cccc6[nH]ccc56)CC4)CC3)c2c1 | 0% |
| c1cc(N2CCN([C@H]3CC[C@@H](c4c[nH]c5ccccc54)CC3)CC2)c2cc[nH]c2c1 | 0% |
| COc1ccc(F)cc1N1CCN([C@H]2CC[C@@H](c3c[nH]c4ccc(F)cc43)CC2)CC1 [Example 22a] | 0% |

Could you tell me which Emax is on file for COc1cc(N2CCN([C@H]3CC[C@@H](c4c[nH]c5ccc(C#N)cc54)CC3)CC2)c2ncccc2c1 [Example 44c] ? 0%

Record: COc1ccc2[nH]cc([C@H]3CC[C@H](N4CCN(c5cccc6[nH]ccc56)CC4)CC3)c2c1 77%

Record: Cn1cc([C@H]2CC[C@@H](N3CCN(c4cccc5cccnc45)CC3)CC2)c2cc(F)ccc21 0%

Record: COc1ccc2[nH]cc([C@H]3CC[C@@H](N4CCN(c5cccc6[nH]ccc56)CC4)CC3)c2c1 0%

Record: N#Cc1ccc2[nH]cc([C@H]3CC[C@@H](N4CCN(c5cccc6[nH]ccc56)CC4)CC3)c2c1 0%

Record: N#Cc1ccc2[nH]cc(C3=CCC(N4CCN(c5cccc6[nH]ccc56)CC4)CC3)c2c1 (stereo not shown) 80%

Record: Fc1ccc2c(c1)[nH]cc2[C@H]1CC[C@@H](N2CCN(c3cccc4[nH]ccc34)CC2)CC1 0%

Record: COc1ccc(F)cc1N1CCN([C@H]2CC[C@H](c3c[nH]c4ccc(F)cc43)CC2)CC1 [Example 22b] 0%
